System: OVCAR-5 ovarian
Assay: NCI tumour cell line growth inhibition, 48 h
TGI reference
MEASURE: TGI

compound=CC[C@H](C)[C@H](NC(=O)C12CC(NC)(C1)C2)C(=O)N(C)[C@H](C[C@@H](OC(C)=O)c1nc(C(=O)N[C@@H](Cc2ccccc2)C[C@H](C)C(=O)OC)cs1)C(C)C measure=TGI value_measured="> 25 µM"
compound=C=C1CC[C@@H]2C(C)(C)[C@H](O)CC[C@@]2(C)[C@@H]1COc1ccc2ccc(=O)oc2c1 measure=TGI value_measured="> 100 µM"
compound="COc1ccc(C(=O)N2N=C(c3ccc(Br)cc3)CC2c2cn(-c3ccccc3)nc2-c2ccccc2)cc1 (centres undefined)" measure=TGI value_measured="> 50 µM"
compound="CC(=O)c1c(-c2ccc(Cl)cc2)c(C#N)c(=S)n(C2OC(CO)C(O)C(O)C2O)c1-c1ccccc1 (centres undefined)" measure=TGI value_measured="> 100 µM"

The measurements presented in this section are drawn from PubChem BioAssay (NCI).
